Hey, just so you know, these numbers are from patent US11345702B1.

We begin with a simple list: items and their reported HLM + NADPH (% remaining at 45 min).
Test: Liver microsome stability assay (HLM)
Assay type: in vitro ADME
Conditions: human liver microsomes
Method: A microsomal mixture (microsomes and Kphos buffer) was prepared at a concentration of 1.428 mg/mL in 2 mL tubes. […] (Verapamil in human liver microsomes (HLM) and rat liver microsomes (RLM) was used as positive controls. Imipramine in mouse liver microsomes (MLM) was used as a positive control.) Samples were monitored for parent compound disappearance in MRM mode (multiple reaction monitoring) using LC-MS/MS. […]
Numeric only. Scale: %

Below, each entry is followed by its recorded HLM + NADPH (% remaining at 45 min) result.
O=C(c1cnc2c(ccn2-c2ccc3c(c2)OCO3)c1)N1CCC(F)CC1: 117
COc1ccc(-n2cnc3cc(C(=O)N4CCC(F)(F)CC4)cnc32)cc1: 100
Cc1cncc(-n2cc(Cl)c3cc(C(=O)N4CCC(F)CC4)cnc32)n1: 47
COc1ccc(-n2cnc3cc(C(=O)N4CCCCC4)cnc32)cc1: 97
O=C(c1cnc2c(c1)ncn2-c1cccc(Cl)c1)N1CCCCC1: 87

Sample `COc1ccc(-n2cnc3cc(C(=O)N4CCC(F)CC4)cnc32)cc1` — what was its HLM + NADPH (% remaining at 45 min)?
96

Sample `Cc1ncc(-n2cc(Cl)c3cc(C(=O)N4CCC(F)CC4)cnc32)cn1` — what was its HLM + NADPH (% remaining at 45 min)?
71

Sample `COc1ccc(-n2c(CC#N)nc3cc(C(=O)N4CCC(F)CC4)cnc32)cc1` — what was its HLM + NADPH (% remaining at 45 min)?
68

Sample `O=C(c1cnc2c(c1)c(Cl)cn2-c1cnccn1)N1CCC(F)CC1` — what was its HLM + NADPH (% remaining at 45 min)?
48

###

Biological target: 15-PGDH/HPGD (Homo sapiens (Human), UniProt P15428)
Sequence (P15428 whole entry): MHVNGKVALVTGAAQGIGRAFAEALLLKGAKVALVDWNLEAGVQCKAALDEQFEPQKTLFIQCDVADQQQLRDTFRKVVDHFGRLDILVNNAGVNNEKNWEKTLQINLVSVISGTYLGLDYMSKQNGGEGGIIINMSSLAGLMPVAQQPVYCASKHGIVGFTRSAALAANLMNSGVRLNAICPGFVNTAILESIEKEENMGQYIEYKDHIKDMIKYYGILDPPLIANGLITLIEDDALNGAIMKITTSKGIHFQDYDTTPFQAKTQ
Experiment: hPGDH inhibitor screening biochemical assay
Conditions: read-out: hPGDH: Average IC50
We begin with a simple list: items and their reported IC50.

Below, each entry is followed by its recorded IC50 result.
O=C(c1ccc2c(c1)ncn2-c1cccc(Cl)c1)N1CC2CC2C1 (stereo not drawn): 100 to 1000 nM
O=C(c1cnc2c(ccn2-c2cncc(-c3n[nH]c(C4CC4)n3)c2)c1)N1CCC(F)(F)CC1: < 100 nM
CN(C)c1ccc(-n2ccc3cc(C(=O)N4CCCCC4)cnc32)cc1: < 100 nM
COc1ccc(Cn2cc(-n3ccc4cc(C(=O)N5CCCCC5)cnc43)cn2)cc1: 100 to 1000 nM
COc1ccc(-n2ccc3cc(C(=O)N4CCC(F)CC4)ccc32)cc1: < 100 nM
N#Cc1ccc(-n2ccc3cc(C(=O)N4CCCCC4)cnc32)cc1: < 100 nM
O=C(c1cnc2c(ccn2-c2ccc3[nH]ncc3c2)c1)N1CCC(F)(F)CC1: < 100 nM
N#Cc1ccc(-n2ccc3cc(C(=O)N4CC[C@H](F)C4)cnc32)cc1 (single isomer, unassigned): < 100 nM

Let us move to another entry and its IC50.
Sample `NCc1cccc(-n2ccc3cc(C(=O)N4CCCCC4)cnc32)c1` — what was its IC50?
100 to 1000 nM

###

We begin with a simple list: items and their reported IC50.
Target: 15-PGDH/HPGD (Homo sapiens (Human), UniProt P15428)
Test: hPGDH inhibitor screening biochemical assay
Conditions: read-out: hPGDH: Average IC50
Description: A hydroxyprostaglandin dehydrogenase inhibition screening biochemical assay can be performed to assess the synthesized inhibitors provided herein. Provided herein is an exemplary biochemical assay for hPGDH inhibitor screening. […]

Below, each entry is followed by its recorded IC50 result.
O=C(c1cnc2c(ccn2-c2ccc(-c3noc(=O)[nH]3)nc2)c1)N1CCC(F)(F)CC1 [MF-DH-456]: < 0.1 µM
Cc1cn(-c2cncnc2)c2ccc(C(=O)N3CCC(F)CC3)cc12 [MF-DH-178]: 0.1 to 1 µM
CC1(C)CCN(c2cnccn2)c2ccc(C(=O)N3CCC(F)CC3)cc21 [MF-DH-160]: 0.1 to 1 µM
O=C(Nc1ccn(C2CC2)n1)c1cccc(-n2ccc3cc(C(=O)N4CCC(F)(F)CC4)cnc32)c1 [MF-DH-499]: < 0.1 µM
NC(=O)[C@@H]1CCCN1C(=O)c1cccc(-n2ccc3cc(C(=O)N4CCC(F)(F)CC4)cnc32)c1 [MF-DH-486]: < 0.1 µM
O=C(c1cnc2c(ccn2-c2cncc(-c3nc[nH]n3)c2)c1)N1CCC(F)(F)CC1 [MF-DH-516]: < 0.1 µM
O=C(O)CCc1nc2cc(C(=O)N3CCCCC3)ccc2n1-c1cccc(Cl)c1 [MF-PGDH-034]: < 0.1 µM

Let us move to another entry and its IC50.
Sample NC(=O)c1cccc(-n2ccc3cc(C(=O)N4CCCCC4)cnc32)c1 [MF-DH-301] — what was its IC50?
< 0.1 µM

###

Molecular target: 15-PGDH/HPGD (Homo sapiens (Human), UniProt P15428)
Test: hPGDH inhibitor screening biochemical assay
Settings: read-out: hPGDH: Average IC50
pIC50: −log10 of the molar value.
recorded.endpoint: pIC50

Below, each entry is followed by its recorded pIC50 result.
CNC(=O)c1cncc(-n2ccc3cc(C(=O)N4CCCCC4)cnc32)c1: > 7.00
O=C(c1cnc2c(c1)c(Cl)cn2-c1ccncn1)N1CCC(F)CC1: 6.00 to 7.00
NCCNC(=O)c1ccc(-n2ccc3cc(C(=O)N4CCC(F)(F)CC4)cnc32)cc1: > 7.00
O=C(c1cnc2c(ccn2-c2cncc(-c3nnn[nH]3)c2)c1)N1CCC(F)(F)CC1: > 7.00

Sample `CCOC(=O)Cc1nc2cc(C(=O)N3CCCCC3)ccc2n1-c1cccc(Cl)c1` — what was its pIC50?
> 7.00

Sample `Cc1c(C(=O)N2CCC(F)CC2)cnc2c1ccn2-c1ccc(C(N)=O)cc1` — what was its pIC50?
> 7.00

Sample `Cc1cc(-n2ccc3cc(C(=O)N4CCCCC4)cnc32)cnc1N` — what was its pIC50?
> 7.00

Sample `O=C(O)c1cncc(-n2ccc3cc(C(=O)N4CCC(F)(F)CC4)cnc32)c1` — what was its pIC50?
> 7.00

Sample `NC(=O)CCc1nc2cc(C(=O)N3CCCCC3)ccc2n1-c1cccc(Cl)c1` — what was its pIC50?
> 7.00

###

Test: Liver microsome stability assay (RLM)
Type: in vitro ADME
Conditions: rat liver microsomes
Binary call on RLM + NADPH (% remaining at 45 min) with cut-off 40%: strictly below means yes (1), and equality or higher means no (0).

O=C(c1cnc2c(c1)c(Cl)cn2-c1cnccn1)N1CCC(F)CC1 [MF-DH-124]: yes (1)
O=C(c1cnc2c(ccn2-c2ccc3c(c2)OCO3)c1)N1CCC(F)CC1 [MF-DH-175]: no (0)
O=C(c1cnc2c(c1)ncn2-c1ccc(F)cc1)N1CCCCC1 [MF-DH-215]: no (0)

Does O=C(c1cnc2c(c1)ncn2-c1cccc(OC(F)(F)F)c1)N1CCCCC1 [MF-DH-227] have RLM + NADPH (% remaining at 45 min) strictly under 40%?
no (0)

Does COc1ccc(-n2nnc3cc(C(=O)N4CCC(F)CC4)ccc32)cc1 [MF-DH-242] have RLM + NADPH (% remaining at 45 min) strictly under 40%?
no (0)

Does O=C(c1ccc2c(cnn2-c2cncc(Cl)c2)c1)N1CCCCC1 [MF-DH-292] have RLM + NADPH (% remaining at 45 min) strictly under 40%?
yes (1)

###

We begin with a simple list: items and their reported solubility.
Experiment: Solubility at pH 7.4
Assay type: physicochemical
Conditions: aqueous buffer; pH 7.4; 6-5 ring core; read-out: Solubility at pH 7.4

Below, each entry is followed by its recorded solubility result.
O=C(c1cnc2c(ccn2-c2cccc(Cl)c2)c1)N1CCCCC1 [drawing 216]: 21 µM
COc1ccc(-n2cnc3cc(C(=O)N4CCCCC4)ccc32)cc1 [drawing 223]: 150 µM
O=C(c1ccc2c(c1)nnn2-c1cccc(Cl)c1)N1CCCCC1 [drawing 221]: 68 µM
COc1ccc(-n2cnc3cc(C(=O)N4CCCCC4)cnc32)cc1 [drawing 193]: 160 µM
O=C(c1ccc2c(ccn2-c2cccc(Cl)c2)c1)N1CCCCC1 [drawing 225]: < 5 µM

Sample O=C(c1ccc2c(cnn2-c2cccc(Cl)c2)c1)N1CCCCC1 [drawing 224] — what was its solubility?
6.9 µM

###

Target: 15-PGDH/HPGD (Homo sapiens (Human), UniProt P15428)
Experiment: hPGDH inhibitor screening biochemical assay
Conditions: read-out: hPGDH: Average IC50
pIC50: −log10 of the molar value.
recorded.endpoint: pIC50

Below, each entry is followed by its recorded pIC50 result.
COc1ccc(Cn2cnc(-n3ccc4cc(C(=O)N5CCCCC5)cnc43)c2)cc1: 6.00 to 7.00
O=C(c1cnc2c(ccn2-c2cccc(CO)c2)c1)N1CCC(F)CC1: > 7.00
CC(C)(C)NC(=O)c1ccc(-n2ccc3cc(C(=O)N4CCC(F)(F)CC4)cnc32)cn1: > 7.00
O=C(O)[C@@H]1CCCN1C(=O)c1ccc(-n2ccc3cc(C(=O)N4CCC(F)(F)CC4)cnc32)cc1: > 7.00
O=C(c1ccc2c(c1)ncn2-c1ccc(O)c(Cl)c1)N1CCCCC1: > 7.00

Sample `Nc1ccc(-n2ccc3cc(C(=O)N4CCCCC4)cnc32)cn1` — what was its pIC50?
> 7.00

Sample `Cc1nc2c(cc1C(=O)N1CCC(F)CC1)c(Cl)cn2-c1cnccn1` — what was its pIC50?
≤ 6.00

Sample `O=C(c1cnc2c(c1)ncn2-c1cccc(Cl)c1)N1CCCCC1` — what was its pIC50?
> 7.00

Sample `CC(C)(C#N)c1cncc(-n2ccc3cc(C(=O)N4CCC(F)(F)CC4)cnc32)c1` — what was its pIC50?
> 7.00

Sample `O=C(c1cnc2c(ccn2-c2ccccn2)c1)N1CCCCC1` — what was its pIC50?
> 7.00

Sample `O=C(c1cnc2c(ccn2-c2ccncn2)c1)N1CCCCC1` — what was its pIC50?
> 7.00

Sample `N#Cc1ccc(-n2ccc3cc(C(=O)N4CCC(F)(F)CC4)cnc32)nc1` — what was its pIC50?
6.00 to 7.00

Sample `CN(C)C(=O)c1ccc(-n2ccc3cc(C(=O)N4CCCCC4)cnc32)cc1` — what was its pIC50?
> 7.00
